- Test system: HIV-1-IIIB strain
- experiment summary: Anti-HIV activity: protection of HIV-infected MT-4 cells from HIV-induced cytopathy (MTT assay)
- setup conditions: HIV-1 IIIB, MT-4 cells
Could you please report measured SI(IIIB), selection index (CC50/EC50) for the items listed next?
One number for each entry.

Example entries and their recorded answers appear below.
N#Cc1ccc(Nc2nccc(Nc3c(F)cc(-c4ccnc(-c5ccnc(Cl)c5)c4)cc3F)n2)cc1    3068
N#Cc1ccc(Nc2nccc(Nc3c(F)cc(-c4cc(Cl)nc(Cl)c4)cc3F)n2)cc1    97
N#Cc1ccc(Nc2nccc(Nc3c(F)cc(-c4cn[nH]c4)cc3F)n2)cc1    298
COc1cc(-c2cc(F)c(Nc3ccnc(Nc4ccc(C#N)cc4)n3)c(F)c2)ccn1    501
Cc1cc(-c2cc(F)c(Nc3ccnc(Nc4ccc(C#N)cc4)n3)c(F)c2)cc(C)n1    21

Turning to the following compound.
# compound `N#Cc1ccc(Nc2nccc(Nc3c(F)cc(-c4ccco4)cc3F)n2)cc1` ; its SI(IIIB), selection index (CC50/EC50) = 7910
